Experiment: soluble fraction after stress (log2 fold change); higher = more stays soluble; pooled small domains, quantitative proteomics
Settings: stress: 50 degC
measured_quantity: soluble fraction (log2)
Give your answer as a number; write no unit.

// below: answered sequences
{"input_sequence": "HMHDLSQQIVRYLIQQGGSSSLTDKSDPQEIYRTFKVSKKKYKQALGNLYKSKTIVITSGKIELVD", "soluble fraction (log2)": -2.69}
{"input_sequence": "HMTRHSSVDFAGYILRNKENEPIFGFGKHKGKTVVEVLQREQGYFGWLMEADFPLYTKKVLTAIRLNTLNS", "soluble fraction (log2)": -0.117}
{"input_sequence": "HMGVTDSSYNVLRRQILEMLSVQQRTPADLARLIEADKEEIAAVIRFLLDKGEIQMEDGMLQTK", "soluble fraction (log2)": 0.0683}
{"input_sequence": "HMPVFSAEQVAKAEADVQKVANKVQEAGADVEKLTTIHNWLLAREKYMPPDLFSTANQIIATAFQKAG", "soluble fraction (log2)": 0.112}
{"input_sequence": "HMLIPADETEAKVLSVLSREPLHVDEIRNQAGLPIEKISATLALMELKGMVRQVGGMNYVSV", "soluble fraction (log2)": 0.122}

Req: Report soluble fraction (log2), nothing else, for this sequence: HMALDLPVKRVKGKEYYYYKVKKGESLYGISKHLGLPLDSIVKSNPSVADGVRKGDMLLFPLEEYT
Resp: -0.307

Req: Report soluble fraction (log2), nothing else, for this sequence: HMTGMDALIGRRVFVSEEILPGDAGGRVAVDGDSWRAISVGTAKPIPAGTEVRIHGYKSLILEVEPI
Resp: -0.162

Req: Report soluble fraction (log2), nothing else, for this sequence: HMRNEFEAHSDGTRIQLNDRSKATFSVYDVQGRLIHSFQDFSGSSFNIEPKNQLLIITRETAEGVSVKKLV
Resp: 0.0942

* * *

Assay: soluble fraction after stress (log2 fold change); higher = more stays soluble; pooled small domains, quantitative proteomics
Details: stress: 50 degC
# reported soluble fraction (log2); entries follow
Give your answer as a number; write no unit.

// below: answered sequences
{"input_sequence": "HMSTYTETETAYLKAYSAAGVDGKISDSERGILNMTAEALGITVERTTELEAMFNLTVEEEA", "soluble fraction (log2)": -0.118}
{"input_sequence": "HMYPNEFPRKVMSVFESSGLEMFRTIEMLLAIPEYETPLPYGSGVSRSDIFVLAKSAGNLVSITV", "soluble fraction (log2)": 0.00886}
{"input_sequence": "HMTIERVKIKETPTGWLRVRETPDNNGSEIGRANVGEIYELLGSKGEWYHIVYKGKQGFISTKYAEKVL", "soluble fraction (log2)": -0.22}

Req: Report soluble fraction (log2), nothing else, for this sequence: HMNNGAEIGAEIRSLRKARGLTLEDLAAKIGRSVGYISQVERGISPLTIPNLKAIAEVLGVGINWFFRGEA
Resp: -0.552

Req: Report soluble fraction (log2), nothing else, for this sequence: HMKFNEKQNEVRIAIMNFIIDNKRPFHMKQDGYDALEGITLSGRHEFQDILDVLHSRDGFSADEEGNINF
Resp: -1.51

Req: Report soluble fraction (log2), nothing else, for this sequence: HMGYLNDRQRLIKDFITENQPLKVSDLVKQFPNIGLSTLKKDLQYLRGEQVLTMIGKGKGSVYVLNKK
Resp: -0.446

Req: Report soluble fraction (log2), nothing else, for this sequence: HMVTPAQQARDTLLGALVGLARATTSEPKTDDTDVVLNAGLRLAAQPDAPEERLQRMLAIVQTEKHRV
Resp: 0.116

Req: Report soluble fraction (log2), nothing else, for this sequence: HMKSLLTARQLEVFEIARNKGYWTTPRKISLVELSKLLDISKSTLSVLLHSIEGKVMEEFYEEIRQ
Resp: -1.81

All figures here come from the domain aggregation screens of Martell et al. (2025).
